Target: Histone deacetylase
Assay: Inhibition of HDAC in human HeLa nuclear extract using Boc-Lys(acetyl)-AMC as substrate measured after 60 mins by fluorescence assay
Format: protein assay
Endpoint Name: IC50 (nM)

# Structure, IC50 / nM
rows = [
    ("CCCN(Cc1ccc(C(=O)NO)cc1)C(=O)c1cc2c([nH]c3ccccc32)c(-c2cccc(OC)c2)n1", 230),
    ("CCCCN(Cc1ccc(C(=O)NO)cc1)C(=O)c1cc2c([nH]c3ccccc32)c(-c2ccc(OC)cc2)n1", 340),
    ("CCCN(Cc1ccc(C(=O)NO)cc1)C(=O)c1cc2c(cn1)[nH]c1ccccc12", 2820),
]

(I) COc1ccc(-c2nc(C(=O)N(C)Cc3ccc(C(=O)NO)cc3)cc3c2[nH]c2ccccc23)cc1
(II) CCCCN(Cc1ccc(C(=O)NO)cc1)C(=O)c1cc2c(cn1)[nH]c1ccccc12
Enquiry: Please indicate which item has the smaller measured IC50: I versus II Output the label that corresponds to your choice.
Return: I
(I: 960 nM, II: 2690 nM)

(a) Cc1nc(C(=O)N(C)Cc2ccc(C(=O)NO)cc2)cc2c1[nH]c1ccccc12
(b) CCN(Cc1ccc(C(=O)NO)cc1)C(=O)c1cc2c([nH]c3ccccc32)c(C)n1
(c) CN(Cc1ccc(C(=O)NO)cc1)C(=O)c1cc2c(cn1)[nH]c1ccccc12
Enquiry: Kindly order the items shown according to IC50, from the highest value down. Write the labels, ordered according to the request.
Return: c, a, b

###

Test system: HCT-116
Assay: Antiproliferative activity against human HCT116 cells after 48 hrs by MTT assay
Type: functional, cell-based
Conditions: HCT-116, 48 h
Endpoint Name: IC50 (µM)

(I) CCCCN(Cc1ccc(C(=O)NO)cc1)C(=O)c1cc2c([nH]c3ccccc32)c(-c2ccc(OC)cc2)n1
(II) CCN(Cc1ccc(C(=O)NO)cc1)C(=O)c1cc2c([nH]c3ccccc32)c(-c2ccc(OC)cc2)n1
Enquiry: Which of the two gives a bigger number for IC50: I or II ? Output the label that corresponds to your choice.
Return: II

###

Target: Histone deacetylase
Experiment: Inhibition of HDAC in human HeLa nuclear extract using Boc-Lys(acetyl)-AMC as substrate measured after 60 mins by fluorescence assay
Type: protein assay
Endpoint Name: IC50 (nM)

Previously resolved entries follow.
# Structure, Endpoint Unit, IC50
data = [
    ("CCCCN(Cc1ccc(C(=O)NO)cc1)C(=O)c1cc2c([nH]c3ccccc32)c(C)n1", "nM", 930),
    ("CCN(Cc1ccc(C(=O)NO)cc1)C(=O)c1cc2c([nH]c3ccccc32)c(-c2ccc(OC)cc2)n1", "nM", 830),
]

(I) CCN(Cc1ccc(C(=O)NO)cc1)C(=O)c1cc2c(cn1)[nH]c1ccccc12
(II) CCCN(Cc1ccc(C(=O)NO)cc1)C(=O)c1cc2c([nH]c3ccccc32)c(C)n1
(III) CCCCN(Cc1ccc(C(=O)NO)cc1)C(=O)c1cc2c([nH]c3ccccc32)c(-c2cccc(OC)c2)n1
Enquiry: Sort low-to-high on IC50, please. Write the labels, ordered according to the request.
Return: III, II, I
(III: 370 nM, II: 850 nM, I: 4780 nM)
